- target_or_test_system: hCA II (Homo sapiens, UniProt P00918)
- Construct: gene CA2; recombinant, obtained in-house
- protocol_text: stopped-flow CO2 hydrase assay
- Assay type: biochemical
- Description: stopped-flow CO2 hydrase assay on hCA II
readout_type: Ki
Write your answer as a measured quantity: the number, then the unit.

Use the examples below as a reference point.
>  <molecule>
CCCCCCC1SC(Nc2ccc(S(N)(=O)=O)cc2)=NC1=O (racemic)

>  <target_or_test_system>
hCA II (Homo sapiens, UniProt P00918)

>  <Ki>
13.7 nM

$$$$
>  <molecule>
CCCC1SC(Nc2ccc(S(N)(=O)=O)cc2)=NC1=O (racemic)

>  <target_or_test_system>
hCA II (Homo sapiens, UniProt P00918)

>  <Ki>
2.3 nM

$$$$
>  <molecule>
NS(=O)(=O)c1ccc(NC2=NC(=O)C(F)S2)cc1 (racemic)

>  <target_or_test_system>
hCA II (Homo sapiens, UniProt P00918)

>  <Ki>
3.7 nM

$$$$

Value sought for every listed molecule: Ki.
1. CCCCC1SC(Nc2ccc(S(N)(=O)=O)cc2)=NC1=O (racemic)
2. NS(=O)(=O)c1ccc(NC2=NC(=O)C(CCBr)S2)cc1 (racemic)

**Result**
1: 3.2 nM; 2: 2.2 nM

Value sought for every listed molecule: Ki.
1. CC(C)C1SC(Nc2ccc(S(N)(=O)=O)cc2)=NC1=O (racemic)
2. NS(=O)(=O)c1ccc(NC2=NC(=O)C(c3ccccc3)S2)cc1 (racemic)
3. CCC1SC(Nc2ccc(S(N)(=O)=O)cc2)=NC1=O (racemic)
4. CC1SC(Nc2ccc(S(N)(=O)=O)cc2)=NC1=O (racemic)

**Result**
1. 7.3 nM
2. 1.3 nM
3. 3.8 nM
4. 4.3 nM

* * *

- target_or_test_system: hCA I (Homo sapiens, UniProt P00915)
- Construct: gene CA1; recombinant, obtained in-house
- Sequence (P00915 2-261): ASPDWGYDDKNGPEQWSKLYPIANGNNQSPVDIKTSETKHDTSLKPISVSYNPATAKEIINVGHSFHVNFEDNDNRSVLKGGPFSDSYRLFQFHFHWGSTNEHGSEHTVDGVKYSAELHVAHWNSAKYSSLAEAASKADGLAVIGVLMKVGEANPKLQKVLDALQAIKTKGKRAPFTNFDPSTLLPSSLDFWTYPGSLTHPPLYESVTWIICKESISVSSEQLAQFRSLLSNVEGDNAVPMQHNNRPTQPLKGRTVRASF
- protocol_text: stopped-flow CO2 hydrase assay
- Assay type: biochemical
readout_type: Ki

>  <compound>
CCCCCCC1SC(Nc2ccc(S(N)(=O)=O)cc2)=NC1=O (racemic) [4g]

>  <Ki>
637 nM

$$$$
>  <compound>
NS(=O)(=O)c1ccc(NC2=NC(=O)C(CCBr)S2)cc1 (racemic) [4i]

>  <Ki>
74.6 nM

$$$$
>  <compound>
CCCCC1SC(Nc2ccc(S(N)(=O)=O)cc2)=NC1=O (racemic) [4f]

>  <Ki>
75 nM

$$$$
>  <compound>
CCCC1SC(Nc2ccc(S(N)(=O)=O)cc2)=NC1=O (racemic) [4d]

>  <Ki>
70.7 nM

$$$$
>  <compound>
CC(C)C1SC(Nc2ccc(S(N)(=O)=O)cc2)=NC1=O (racemic) [4e]

>  <Ki>
85.4 nM

$$$$
>  <compound>
CCC1SC(Nc2ccc(S(N)(=O)=O)cc2)=NC1=O (racemic) [4c]

>  <Ki>
66.6 nM

$$$$
>  <compound>
NS(=O)(=O)c1ccc(NC2=NC(=O)C(F)S2)cc1 (racemic) [4j]

>  <Ki>
138 nM

$$$$
>  <compound>
CC1SC(Nc2ccc(S(N)(=O)=O)cc2)=NC1=O (racemic) [4b]

>  <Ki>
31.5 nM

$$$$

// switching to the query compound
**Query** I would be grateful if you could share the reported Ki for NS(=O)(=O)c1ccc(NC2=NC(=O)C(c3ccccc3)S2)cc1 (racemic) [4h] .
**Result** 90.4 nM

* * *

- target_or_test_system: hCA VII (Homo sapiens, UniProt P43166)
- Construct: gene CA7; recombinant, obtained in-house
- Sequence (P43166 whole entry): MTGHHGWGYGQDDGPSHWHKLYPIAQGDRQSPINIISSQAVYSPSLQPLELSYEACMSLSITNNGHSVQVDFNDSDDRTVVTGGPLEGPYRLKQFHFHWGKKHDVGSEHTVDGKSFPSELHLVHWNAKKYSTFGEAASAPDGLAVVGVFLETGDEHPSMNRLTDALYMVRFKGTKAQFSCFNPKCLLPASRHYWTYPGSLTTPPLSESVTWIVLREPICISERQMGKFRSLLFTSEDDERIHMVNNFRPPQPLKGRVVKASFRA
- protocol_text: stopped-flow CO2 hydrase assay
- Type: biochemical
Please respond with reported Ki for every item in the list.
Give bare numbers, in nM.

>  <compound>
NS(=O)(=O)c1ccc(NC2=NC(=O)CS2)cc1 [4a]

>  <readout_type>
Ki

>  <measurement>
1.4

$$$$

Value sought for every listed compound: Ki.
1. CCCCC1SC(Nc2ccc(S(N)(=O)=O)cc2)=NC1=O (racemic) [4f]
2. CCCCCCC1SC(Nc2ccc(S(N)(=O)=O)cc2)=NC1=O (racemic) [4g]
3. CC1SC(Nc2ccc(S(N)(=O)=O)cc2)=NC1=O (racemic) [4b]

**Result**
6.2
14.6
0.9

Value sought for every listed compound: Ki.
1. CCC1SC(Nc2ccc(S(N)(=O)=O)cc2)=NC1=O (racemic) [4c]
2. CCCC1SC(Nc2ccc(S(N)(=O)=O)cc2)=NC1=O (racemic) [4d]
3. NS(=O)(=O)c1ccc(NC2=NC(=O)C(F)S2)cc1 (racemic) [4j]

**Result**
1. 1.2
2. 2
3. 1.9

Value sought for every listed compound: Ki.
1. NS(=O)(=O)c1ccc(NC2=NC(=O)C(c3ccccc3)S2)cc1 (racemic) [4h]
2. NS(=O)(=O)c1ccc(NC2=NC(=O)C(CCBr)S2)cc1 (racemic) [4i]
3. CC(C)C1SC(Nc2ccc(S(N)(=O)=O)cc2)=NC1=O (racemic) [4e]

**Result**
[7.3, 2.1, 7.5]

* * *

- target_or_test_system: MscCAβ (Mammaliicoccus sciuri, UniProt A0AAJ4SIE8)
- Construct: gene OWO77_14055; recombinant, obtained in-house
- Sequence (A0AAJ4SIE8 1-189): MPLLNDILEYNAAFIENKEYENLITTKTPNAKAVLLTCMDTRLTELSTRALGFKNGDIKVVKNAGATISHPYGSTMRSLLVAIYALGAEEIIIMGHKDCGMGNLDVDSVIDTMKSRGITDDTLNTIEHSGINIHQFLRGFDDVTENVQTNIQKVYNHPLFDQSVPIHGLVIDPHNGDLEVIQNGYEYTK
- protocol_text: stopped-flow CO2 hydrase assay
- Assay type: biochemical
- condition_label: CO2 hydration, […] TRIS pH […] Na2SO4, […] min preincubation at room temperature
Please respond with reported Ki for every item in the list.
Answers are plain numbers, in nM.

Use the examples below as a reference point.
>  <molecule>
NS(=O)(=O)c1ccc(NC2=NC(=O)C(CCBr)S2)cc1 (racemic)

>  <Ki (nM)>
925

$$$$
>  <molecule>
CCC1SC(Nc2ccc(S(N)(=O)=O)cc2)=NC1=O (racemic)

>  <Ki (nM)>
411

$$$$
>  <molecule>
CCCCCCC1SC(Nc2ccc(S(N)(=O)=O)cc2)=NC1=O (racemic)

>  <Ki (nM)>
4030

$$$$
>  <molecule>
NS(=O)(=O)c1ccc(NC2=NC(=O)C(c3ccccc3)S2)cc1 (racemic)

>  <Ki (nM)>
1060

$$$$
>  <molecule>
CC(C)C1SC(Nc2ccc(S(N)(=O)=O)cc2)=NC1=O (racemic)

>  <Ki (nM)>
701

$$$$

Value sought for every listed molecule: Ki.
1. CC1SC(Nc2ccc(S(N)(=O)=O)cc2)=NC1=O (racemic)
2. NS(=O)(=O)c1ccc(NC2=NC(=O)C(F)S2)cc1 (racemic)
3. CCCCC1SC(Nc2ccc(S(N)(=O)=O)cc2)=NC1=O (racemic)
4. CCCC1SC(Nc2ccc(S(N)(=O)=O)cc2)=NC1=O (racemic)
5. NS(=O)(=O)c1ccc(NC2=NC(=O)CS2)cc1

**Result**
1: 481; 2: 849; 3: 2420; 4: 73.6; 5: 787

* * *

- target_or_test_system: StCA2 (Salmonella enterica, UniProt O30898)
- Construct: gene mig-5; recombinant, obtained in-house
- Sequence (O30898 41-246): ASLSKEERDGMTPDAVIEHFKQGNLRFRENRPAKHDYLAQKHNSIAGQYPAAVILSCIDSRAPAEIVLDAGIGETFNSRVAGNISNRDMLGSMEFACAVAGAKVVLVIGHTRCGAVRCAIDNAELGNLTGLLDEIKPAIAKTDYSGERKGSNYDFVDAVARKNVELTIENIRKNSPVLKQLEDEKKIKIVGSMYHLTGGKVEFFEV
- protocol_text: stopped-flow CO2 hydrase assay
- Assay type: biochemical
- condition_label: CO2 hydration, […] TRIS pH […] Na2SO4, […] min preincubation at room temperature
readout_type: log10 Ki (log10 of the value in nM)
// stored as log10 of Ki expressed in nM

Use the examples below as a reference point.
>  <compound>
NS(=O)(=O)c1ccc(NC2=NC(=O)C(c3ccccc3)S2)cc1 (racemic)

>  <target_or_test_system>
StCA2 (Salmonella enterica, UniProt O30898)

>  <readout_type>
log10 Ki

>  <measurement>
2.90

$$$$
>  <compound>
CCC1SC(Nc2ccc(S(N)(=O)=O)cc2)=NC1=O (racemic)

>  <target_or_test_system>
StCA2 (Salmonella enterica, UniProt O30898)

>  <readout_type>
log10 Ki

>  <measurement>
2.68

$$$$
>  <compound>
NS(=O)(=O)c1ccc(NC2=NC(=O)C(CCBr)S2)cc1 (racemic)

>  <target_or_test_system>
StCA2 (Salmonella enterica, UniProt O30898)

>  <readout_type>
log10 Ki

>  <measurement>
2.71

$$$$
>  <compound>
CCCCCCC1SC(Nc2ccc(S(N)(=O)=O)cc2)=NC1=O (racemic)

>  <target_or_test_system>
StCA2 (Salmonella enterica, UniProt O30898)

>  <readout_type>
log10 Ki

>  <measurement>
3.69

$$$$
>  <compound>
NS(=O)(=O)c1ccc(NC2=NC(=O)C(F)S2)cc1 (racemic)

>  <target_or_test_system>
StCA2 (Salmonella enterica, UniProt O30898)

>  <readout_type>
log10 Ki

>  <measurement>
2.98

$$$$

Value sought for every listed compound: log10 Ki.
1. CC1SC(Nc2ccc(S(N)(=O)=O)cc2)=NC1=O (racemic)
2. CCCC1SC(Nc2ccc(S(N)(=O)=O)cc2)=NC1=O (racemic)
3. CCCCC1SC(Nc2ccc(S(N)(=O)=O)cc2)=NC1=O (racemic)
4. CC(C)C1SC(Nc2ccc(S(N)(=O)=O)cc2)=NC1=O (racemic)
5. NS(=O)(=O)c1ccc(NC2=NC(=O)CS2)cc1

**Result**
2.73
2.96
2.96
2.94
2.44

These data points were gathered from paper PMC9848287.
